- assayTarget: T1, human IL-33 protein (residue 112 to residue 270) (ATGen, ILC070) (human, UniProt O95760 112-270)
- T1 construct: Bought protein (ATGen, ILC070); also called IL-33 (residue 112 to residue 270)
- T1 sequence: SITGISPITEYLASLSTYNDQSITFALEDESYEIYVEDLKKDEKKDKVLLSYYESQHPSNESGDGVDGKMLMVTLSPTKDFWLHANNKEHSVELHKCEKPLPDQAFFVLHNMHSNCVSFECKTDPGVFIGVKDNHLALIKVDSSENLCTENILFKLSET
- assayDetails: KinExA
- Procedure: Five types of human IL-33 antibodies (A10-1C04, A23-1A05, A25-2CO2, A25-3H04 and A26-1F02) along with mouse sST2-Fc, which is a fusion protein of mouse ST2 and human IgG1 constant region, were prepared with recombinant CHO cells (WO 2015/099175).
Listed next: entries and their corresponding pKd.
Worth noting: pKd values are minus log10 of concentrations stated in mol/L.

Example cases with answers are listed next.
>>> testvalue("A23-1A05 (antibody, human IgG1, lambda, V domains shown, Prepared with recombinant CHO cells; constant region said to be preferably human IgG1; also called human IL-33 antibody; human anti-IL-33 monoclonal antibody) VH: EVQLLESGGGLVQPGGSLRLSCAASGFTFSNYYMHWVRQAPGKGLEWVSSISARSRYHYYADSVKGRFTISRDNSKNTLYLQMNSLRAEDTAVYYCARLATRHNAFDIWGQGTLVTVSS VL: QSVLTQPPSASGTPGQRVTISCSGSSSNIGNNAVSWYQQLPGTAPKLLIYASNMRVIGVPDRFSGSKSGTSASLAISGLRSEDEADYYCGAWDDSQKALVFGGGTKLTVLG")
9.71
>>> testvalue("A26-1F02 (antibody, human IgG1, lambda, V domains shown, Prepared with recombinant CHO cells; constant region said to be preferably human IgG1; also called human IL-33 antibody; human anti-IL-33 monoclonal antibody) VH: EVQLLESGGGLVQPGGSLRLSCAASGFTFSNYYMHWVRQAPGKGLEWVSSISARSSYLYYADSVKGRFTISRDNSKNTLYLQMNSLRAEDTAVYYCARLATRHVAFDIWGQGTLVTVSS VL: QSVLTQPPSASGTPGQRVTISCSGSSSNIGNNAVNWYQQLPGTAPKLLIYASNMRRPGVPDRFSGSKSGTSASLAISGLRSEDEADYYCEAWDDSQKAVVFGGGTKLTVLG")
11.28
>>> testvalue("A10-1C04 (antibody, human IgG1, lambda, V domains shown, Prepared with recombinant CHO cells; constant region said to be preferably human IgG1; also called human IL-33 antibody; human anti-IL-33 monoclonal antibody) VH: EVQLLESGGGLVQPGGSLRLSCAASGFTFSDYYMNWVRQAPGKGLEWVSSISRYSSYIYYADSVKGRFTISRDNSKNTLYLQMNSLRAEDTAVYYCARDIGGMDVWGQGTLVTVSS VL: QSVLTQPPSASGTPGQRVTISCTGSSSNIGAVYDVHWYQQLPGTAPKLLIYRNNQRPSGVPDRFSGSKSGTSASLAISGLRSEDEADYYCQTYDSSRWVFGGGTKLTVLG")
10.00
>>> testvalue("A25-3H04 (antibody, human IgG1, lambda, V domains shown, Prepared with recombinant CHO cells; constant region said to be preferably human IgG1; also called human IL-33 antibody; human anti-IL-33 monoclonal antibody) VH: EVQLLESGGGLVQPGGSLRLSCAASGFTFSRYYMHWVRQAPGKGLEWVSSISAQSSHIYYADSVEGRFTISRDNSKNTLYLQMNSLRAEDTAVYYCARLATRQNAFDIWGQGTLVTVSS VL: QSVLTQPPSASGTPGQRVTISCSGSSSNIGRNAVNWYQQLPGTAPKLLIYASNMRRSGVPDRFSGSKSGTSASLAISGLRSEDEADYYCSAWDDSQKVVVFGGGTKLTVLG")
11.11

Kindly review the next binder as well.
Data point: A25-2C02 (antibody, human IgG1, lambda, V domains shown, Prepared with recombinant CHO cells; constant region said to be preferably human IgG1; also called A25-2CO2; human IL-33 antibody) VH: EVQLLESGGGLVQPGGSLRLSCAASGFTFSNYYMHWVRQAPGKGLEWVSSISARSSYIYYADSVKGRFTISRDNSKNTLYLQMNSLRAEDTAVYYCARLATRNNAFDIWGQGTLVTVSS VL: QSVLTQPPSASGTPGQRVTISCSGSSSNIGRNAVNWYQQLPGTAPKLLIYASNMRVSGVPDRFSGSKSGTSASLAISGLRSEDEADYYCWAWDDSQKVGVFGGGTKLTVLG ; pKd = 12.15
